B1: Formin-binding protein 4, residues 593 to 636; numbered along this chain, Q8N3X1 (parent)
chain: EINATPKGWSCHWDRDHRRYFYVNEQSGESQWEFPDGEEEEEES

- Variants of: B1
- testDetails: abundance fitness (aPCA) (normalised: wild type 0, dead -1); higher = more abundant; growth selection in yeast, the domain comes from the species named
- testConditions: Homo sapiens
Catalogue of variants with associated abundance fitness
Respond with the number and no other words.

Recorded results for 10 variants are shown here.
seq	endpointResult
EINATPKGWSCHWDRDHRRYFYVNEQSGESQWRFPDGEEEEEES	-0.241
EINATPKGWSCHWDRDHRRYFYVNEQSGESQWEFPDGAEEEEES	0.018
EINATPKGWSCHWDRDHRRYFYENEQSGESQWEFPDGEEEEEES	-0.26
EIQATPKGWSCHWDRDHRRYFYVNEQSGESQWEFPDGEEEEEES	0.041
EINKTPKGWSCHWDRDHRRYFYVNEQSGESQWEFPDGEEEEEES	-0.008
EINATPKGWSCHWDRDHRRYFYVNEQSGESQAEFPDGEEEEEES	-0.226
EINATPKGWSCHWDRDHRRYFYVNEQSGESIWEFPDGEEEEEES	-0.472
EINATPKGWSCHWDRDHRRYFYVNEQSGESQWEFPCGEEEEEES	-0.097
EINATPKGWSCHWDRDHRRKFYVNEQSGESQWEFPDGEEEEEES	-0.319
EINATPKGWSCHWDRDHRRYFYVNESSGESQWEFPDGEEEEEES	-0.071

Moving on to another variant below.
What value of abundance fitness has been recorded for this entry: `EINAKPKGWSCHWDRDHRRYFYVNEQSGESQWEFPDGEEEEEES`
0.67
